Tested on: NCI-H23
Test: NCI tumour cell line growth inhibition, 48 h
Activity calls are given as the source filed them. Cut-off read from the data, not from the text of the source: active = GI50 up to about 1.1 µM and inactive = higher.
readout label: GI50

compound=CS(=O)(=O)Nc1ccc(Nc2c3ccccc3nc3ccccc23)cc1 readout_label=GI50 experimental_result="4.06 µM (inactive)"
compound=Cc1ccc(S(=O)(=O)Nc2cccc3c(=O)nc[nH]c23)cc1 readout_label=GI50 experimental_result="90.8 µM (inactive)"
compound=C[C@]12CC[C@H]3[C@@H](CC=C4C[C@@H](N5CCCC5)CC[C@@]43C)[C@@H]1C[C@H](N1CCCCC1)[C@@H]2O readout_label=GI50 experimental_result="> 100 µM (inactive)"
compound=S=c1sc2c(s1)SCc1cccc(n1)CSc1sc(=S)sc1SCc1cccc(n1)CS2 readout_label=GI50 experimental_result="> 100 µM (inactive)"
compound=FC(F)(F)c1ccc(/C=N/C23CC4CC(CC(C4)C2)C3)cc1 readout_label=GI50 experimental_result="> 100 µM (inactive)"
compound=CCC(C)(C)NS(=O)(=O)c1ccccc1 readout_label=GI50 experimental_result="> 100 µM (inactive)"
compound=O=[N+]([O-])c1ccc(C[P+]2(c3ccccc3)CCCCC2)cc1.[O-][Cl+3]([O-])([O-])[O-] readout_label=GI50 experimental_result="> 100 µM (inactive)"
compound=CN(C)CC/C(=N\Nc1ccccc1)c1ccccc1 readout_label=GI50 experimental_result="23 µM (inactive)"
compound=COc1cc2c(cc1C[N+](C)(C)CSc1ccccc1)-c1ccccc1CC2 readout_label=GI50 experimental_result="3.76 µM (inactive)"
compound=CCCCCCCCCCCCCC/C(C(=O)O)=C(\C)C(=O)O readout_label=GI50 experimental_result="> 100 µM (inactive)"
compound=CCc1c(O)c2c(c(O)c1C(C)=O)C(=O)c1c(cc(O)c(C(=O)O)c1C(=O)O)C2=O readout_label=GI50 experimental_result="> 100 µM (inactive)"
compound=CCN(CC)c1ccc(NC(=S)NN(C)C)cc1 readout_label=GI50 experimental_result="> 10 µM (inactive)"
compound="NC(=O)CCC(NCc1c2ccccc2[n+]([O-])c2ccccc12)C(=O)O (stereo not given)" readout_label=GI50 experimental_result="63 µM (inactive)"
compound="CC1CC[C@@]2(OC1)O[C@H]1C[C@H]3[C@@H]4CC[C@H]5C[C@@H](OC6OC(CO)C(OC7OC(CO)C(OC8OC(CO)C(O)C(OC9OC(C)C(OC%10OC(C)C(O)C(O)C%10O)C(O)C9O)C8OC8OCC(O)C(O)C8O)C(O)C7O)C(O)C6O)CC[C@]5(C)[C@H]4CC(=O)[C@]3(C)[C@H]1[C@@H]2C (stereo not given in full)" readout_label=GI50 experimental_result="20.5 µM (inactive)"
compound=CCOC(=O)c1ccc(-c2ccc(Cl)cc2)[nH]1 readout_label=GI50 experimental_result="> 10 µM (inactive)"
